biological target: Cytochrome P450 1B1 (Homo sapiens, UniProt Q16678); test: Inhibition of human CYP1B1 at 5 uM using 7-ethyl-O-resorufin as substrate incubated for 30 mins in presence of NADPH by EROD assay; conditions: 0.5 h
Sequence (Q16678 whole entry): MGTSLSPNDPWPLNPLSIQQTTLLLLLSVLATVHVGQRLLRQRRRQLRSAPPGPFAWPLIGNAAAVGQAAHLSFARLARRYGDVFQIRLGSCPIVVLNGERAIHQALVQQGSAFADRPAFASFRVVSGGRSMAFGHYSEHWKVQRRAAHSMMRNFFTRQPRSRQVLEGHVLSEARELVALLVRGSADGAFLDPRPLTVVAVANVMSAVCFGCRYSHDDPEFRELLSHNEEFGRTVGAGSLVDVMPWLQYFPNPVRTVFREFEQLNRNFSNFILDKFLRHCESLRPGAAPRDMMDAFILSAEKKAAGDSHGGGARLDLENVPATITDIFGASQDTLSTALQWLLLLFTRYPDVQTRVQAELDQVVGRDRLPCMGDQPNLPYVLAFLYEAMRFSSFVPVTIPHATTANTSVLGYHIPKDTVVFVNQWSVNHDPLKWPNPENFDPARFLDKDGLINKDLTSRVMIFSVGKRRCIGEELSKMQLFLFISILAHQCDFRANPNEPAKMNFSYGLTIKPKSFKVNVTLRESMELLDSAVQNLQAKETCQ
Quantity Measured: inhibition (INH)

Consider the following illustrative entries.
COc1ccccc1OCCNCC(O)COc1cccc2[nH]c3ccccc3c12 (stereo unspecified) = Active
C=C[C@H]1C[N@@]2CC[C@H]1C[C@@H]2[C@@H](O)c1ccnc2ccc(OC)cc12 = Not Active
CCc1cc2c(cc1CC)CC(NC[C@H](O)c1ccc(O)c3[nH]c(=O)ccc13)C2 = Active
C#C[C@]1(O)CC[C@H]2[C@@H]3CCc4cc(O)ccc4[C@H]3CC[C@@]21C = Not Active
CC(CCc1ccccc1)NCC(O)c1ccc(O)c(C(N)=O)c1 (stereo unspecified) = Not Active

Next compound, inhibition (INH) to be filled in.
Request: Bench note: what inhibition (INH) did CCN(CCO)CCCC(C)Nc1ccnc2cc(Cl)ccc12.O=S(=O)(O)O (stereo unspecified) [HYDROXYCHLOROQUINE SULFATE] show?
Response: Not Active
